These entries and their values trace back to the supplement of paper PMC4862054.

System: MCF-10A
EXPERIMENT NOTES: normalised response (% of control), CellTiter-Glo; higher = more viable cells (100 = DMSO, 0 = benzethonium chloride kill control)
COND: incubation time: 72 h
Could you please report measured normalised response for the items listed next?
Enter your answer as a number in %; do not include the unit.

*Q* Give recorded normalised response with MCF-10A for the following compound: O=C(NC[C@H](O)CO)c1ccncc1Nc1ccc(I)cc1F [Pimasertib] (1 nM)
*A* 82.8

*Q* Request - read-out normalised response | tested on MCF-10A | compound O=C1c2c(O)ccc(O)c2C(=O)c2c(NCCNCCO)ccc(NCCNCCO)c21 [Mitoxantrone] (100 nM)
*A* 96.2

*Q* Param readout = normalised response; param system = MCF-10A; param query = CC(=O)OC[C@H]1O[C@@H]([S-])[C@H](OC(C)=O)[C@@H](OC(C)=O)[C@@H]1OC(C)=O.CCP(CC)CC.[Au+] [Auranofin] (250 nM) ; response: value
*A* 118

*Q* Give the reported normalised response for Cn1cc(CNCC2CCN(c3ncc(C(=O)NO)cn3)CC2)c2ccccc21 [Quisinostat] (1 nM) (system: MCF-10A).
*A* 107

*Q* Provide the documented normalised response with MCF-10A as the system for COc1nc(N)nc2c1ncn2[C@@H]1O[C@H](CO)[C@@H](O)[C@@H]1O [Nelarabine] (1000 nM)
*A* 82.8

*Q* Which normalised response is reported with MCF-10A for this entry: COc1cc(CCc2cc(NC(=O)c3ccc(N4CC(C)NC(C)C4)cc3)n[nH]2)cc(OC)c1 (stereo not drawn) [AZD4547] (0.1 nM) ?
*A* 92.3

*Q* # value lookup — system MCF-10A, readout normalised response, item O=C1c2c(O)ccc(O)c2C(=O)c2c(NCCNCCO)ccc(NCCNCCO)c21 [Mitoxantrone] (1 nM)
*A* 97.8

*Q* Query for MCF-10A: what normalised response does the record show for COc1ccc(-c2cc3c(C)nc(N)nc3n([C@H]3CC[C@H](OCCO)CC3)c2=O)cn1 (1000 nM) ?
*A* 19.5

----------
Record form. Attribute: drug sensitivity score. Fill in for each entry.
Test system: CAL-148
EXPERIMENT NOTES: drug sensitivity score (DSS), CellTox Green (DSS (AUC-based score)); higher = stronger drug effect (viability inhibition or cytotoxicity); extreme values may be limits of the assay
COND: incubation time: 72 h

*Q* Any idea what drug sensitivity score came out for `CC(=O)OC[C@H]1O[C@@H]([S-])[C@H](OC(C)=O)[C@@H](OC(C)=O)[C@@H]1OC(C)=O.CCP(CC)CC.[Au+]` on CAL-148?
*A* 0.881

*Q* // fetch CAL-148 drug sensitivity score for `CCC/C=C/C=C/C(=O)O[C@H]1/C(=C/C(=O)OC)C[C@H]2C[C@H]([C@@H](C)O)OC(=O)C[C@H](O)C[C@@H]3C[C@H](OC(C)=O)C(C)(C)[C@](O)(C[C@@H]4C/C(=C/C(=O)OC)C[C@H](/C=C/C(C)(C)[C@]1(O)O2)O4)O3`
*A* 0

*Q* For the record `Cc1cccc(-c2nn3c(c2-c2ccnc4ccc(C(N)=O)cc24)CCC3)n1` , what value of drug sensitivity score is listed for CAL-148?
*A* 0

----------
Tested on: CAL-120
EXPERIMENT NOTES: drug sensitivity score (DSS), CellTox Green (DSS (AUC-based score)); higher = stronger drug effect (viability inhibition or cytotoxicity); extreme values may be limits of the assay
COND: incubation time: 72 h
ASSAY ENDPOINT: drug sensitivity score
Output spec: single numeric token, no unit.

*Q* Item `Cc1nc(Nc2ncc(C(=O)Nc3c(C)cccc3Cl)s2)cc(N2CCN(CCO)CC2)n1` has what recorded drug sensitivity score?
*A* 0

*Q* Sample COc1cc(CCc2cc(NC(=O)c3ccc(N4CC(C)NC(C)C4)cc3)n[nH]2)cc(OC)c1 (centres undefined) — what was its drug sensitivity score?
*A* 0.0106

*Q* Given the entry `CNC(=O)c1cc(Oc2ccc(NC(=O)Nc3ccc(Cl)c(C(F)(F)F)c3)cc2)ccn1` , report its measured drug sensitivity score.
*A* 0

*Q* Which measured drug sensitivity score value corresponds to `O=C(NC[C@H](O)CO)c1ccncc1Nc1ccc(I)cc1F` ?
*A* 2.8
